Tested on: 883617-216-R-J1-PDC tumor spheroids, viability
assayDetails: Anticancer human tumor 883617-216-R-J1-PDC patient-derived bladder carcinoma cell line growth inhibition [PI3K]
measurementContext: second compound 3.16 µM; first compound 1 µM; stronger effect = lower value; spheroids with HUVEC and MSC
Collected viability, T/C values appear next to each entry.
Report the value in % with no unit label.

{"columns": ["compound", "viability, T/C, %"],
 "data": [
  ["CC1(C)CCC(CN2CCN(c3ccc(C(=O)NS(=O)(=O)c4ccc(NCC5CCOCC5)c([N+](=O)[O-])c4)c(Oc4cnc5[nH]ccc5c4)c3)CC2)=C(c2ccc(Cl)cc2)C1 + Cc1nc(NC(=O)N2CCCC2C(N)=O)sc1-c1ccnc(C(C)(C)C(F)(F)F)c1", 14.3]
]}

Recorded viability, T/C of CC(Cn1ccc(-c2ccc(C#N)c(Cl)c2)n1)NC(=O)c1cc(C(C)O)[nH]n1 (stereo not drawn) + Cc1nc(NC(=O)N2CCCC2C(N)=O)sc1-c1ccnc(C(C)(C)C(F)(F)F)c1 , please. 15.3

What do you have for CCCS(=O)(=O)Nc1ccc(F)c(C(=O)c2c[nH]c3ncc(-c4ccc(Cl)cc4)cc23)c1F + Cc1nc(NC(=O)N2CCCC2C(N)=O)sc1-c1ccnc(C(C)(C)C(F)(F)F)c1 ? 19.3

What do you have for CC1(C)CCC(CN2CCN(c3ccc(C(=O)NS(=O)(=O)c4ccc(NCC5CCOCC5)c([N+](=O)[O-])c4)c(Oc4cnc5[nH]ccc5c4)c3)CC2)=C(c2ccc(Cl)cc2)C1 + CC(Nc1ncnc2nc[nH]c12)c1cc2cccc(Cl)c2c(=O)n1-c1ccccc1 ? 65.7

What do you have for Cn1nccc1Nc1nccc(-c2ccn(C(CO)c3ccc(Cl)c(F)c3)c(=O)c2)n1 (stereo not drawn) + CC(Nc1ncnc2nc[nH]c12)c1cc2cccc(Cl)c2c(=O)n1-c1ccccc1 ? 50.3

What do you have for C[C@@H](NC(=O)c1ncnc(N)c1Cl)c1ncc(C(=O)Nc2cc(C(F)(F)F)c(Cl)cn2)s1 + Cc1nc(NC(=O)N2CCCC2C(N)=O)sc1-c1ccnc(C(C)(C)C(F)(F)F)c1 ? 15.7

What do you have for CCN1CCN(Cc2ccc(Nc3ncc(F)c(-c4cc(F)c5nc(C)n(C(C)C)c5c4)n3)nc2)CC1 + Cc1nc(NC(=O)N2CCCC2C(N)=O)sc1-c1ccnc(C(C)(C)C(F)(F)F)c1 ? 10.5

What do you have for Cn1nccc1Nc1nccc(-c2ccn(C(CO)c3ccc(Cl)c(F)c3)c(=O)c2)n1 (stereo not drawn) + Cc1nc(NC(=O)N2CCCC2C(N)=O)sc1-c1ccnc(C(C)(C)C(F)(F)F)c1 ? 9.97

###

Test system: 883617-216-R-J1-PDC tumor spheroids, viability
assayDetails: Anticancer human tumor 883617-216-R-J1-PDC cell line growth inhibition [PI3K];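 further: spheroids exposed to agents for 7 days before the viability read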
measurementContext: second compound 0.316 µM; first compound 0.0316 µM; stronger effect = lower value; spheroids with HUVEC and MSC
Collected viability, T/C values appear next to each entry.
Report the value in % with no unit label.

{"columns": ["molecule", "viability, T/C [%]"],
 "data": [
  ["CC1(C)CCC(CN2CCN(c3ccc(C(=O)NS(=O)(=O)c4ccc(NCC5CCOCC5)c([N+](=O)[O-])c4)c(Oc4cnc5[nH]ccc5c4)c3)CC2)=C(c2ccc(Cl)cc2)C1 + CC(Nc1ccc2c(c1)OCCn1cc(N3C(=O)OCC3C(F)F)nc1-2)C(N)=O", 21.2],
  ["CNC(=O)c1ccc(N2C(=S)N(c3ccc(C#N)c(C(F)(F)F)c3)C(=O)C2(C)C)cc1F + Cc1nc(NC(=O)N2CCCC2C(N)=O)sc1-c1ccnc(C(C)(C)C(F)(F)F)c1", 48.6],
  ["C[C@@H](NC(=O)c1ncnc(N)c1Cl)c1ncc(C(=O)Nc2cc(C(F)(F)F)c(Cl)cn2)s1 + Cc1nc(NC(=O)N2CCCC2C(N)=O)sc1-c1ccnc(C(C)(C)C(F)(F)F)c1", 48.3],
  ["CCN1CCN(Cc2ccc(Nc3ncc(F)c(-c4cc(F)c5nc(C)n(C(C)C)c5c4)n3)nc2)CC1 + Cc1nc(NC(=O)N2CCCC2C(N)=O)sc1-c1ccnc(C(C)(C)C(F)(F)F)c1", 37],
  ["CC1(C)CCC(CN2CCN(c3ccc(C(=O)NS(=O)(=O)c4ccc(NCC5CCOCC5)c([N+](=O)[O-])c4)c(Oc4cnc5[nH]ccc5c4)c3)CC2)=C(c2ccc(Cl)cc2)C1 + COc1c(OCCCN2CCOCC2)ccc2c3n(c(=NC(=O)c4cnc(N)nc4)nc12)CCN3", 6.5],
  ["CC(C)NCC(C(=O)N1CCN(c2ncnc3c2C(C)CC3O)CC1)c1ccc(Cl)cc1 (stereo unspecified) + CC(Nc1ccc2c(c1)OCCn1cc(N3C(=O)OCC3C(F)F)nc1-2)C(N)=O", 27.5],
  ["CC(=O)c1c(C)c2cnc(Nc3ccc(N4CCNCC4)cn3)nc2n(C2CCCC2)c1=O + CC(Nc1ncnc2nc[nH]c12)c1cc2cccc(Cl)c2c(=O)n1-c1ccccc1", 58.8],
  ["CCN1CCN(Cc2ccc(Nc3ncc(F)c(-c4cc(F)c5nc(C)n(C(C)C)c5c4)n3)nc2)CC1 + COc1c(OCCCN2CCOCC2)ccc2c3n(c(=NC(=O)c4cnc(N)nc4)nc12)CCN3", 4.63]
]}

# query: viability, T/C | item Cn1ncc(Cl)c1-c1cc(C(=O)NC(CN)Cc2cccc(F)c2)sc1Cl (stereo unspecified) + Cc1nc(NC(=O)N2CCCC2C(N)=O)sc1-c1ccnc(C(C)(C)C(F)(F)F)c1 | system: 883617-216-R-J1-PDC tumor spheroids, viability 42.6

###

Test system: 883617-216-R-J1-PDC tumor spheroids, viability
assayDetails: Anticancer human tumor 883617-216-R-J1-PDC cell line growth inhibition [PI3K];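 further: spheroids exposed to agents for 7 days before the viability read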
measurementContext: second compound 0.00316 µM; first compound 0.316 µM; stronger effect = lower value; spheroids with HUVEC and MSC
testReadout: viability, T/C (%)
Report the value in % with no unit label.

{"columns": ["molecule", "viability, T/C / %"],
 "data": [
  ["C[C@@H](NC(=O)c1ncnc(N)c1Cl)c1ncc(C(=O)Nc2cc(C(F)(F)F)c(Cl)cn2)s1 + CC(Nc1ccc2c(c1)OCCn1cc(N3C(=O)OCC3C(F)F)nc1-2)C(N)=O", 88.9],
  ["CCCS(=O)(=O)Nc1ccc(F)c(C(=O)c2c[nH]c3ncc(-c4ccc(Cl)cc4)cc23)c1F + CC(Nc1ccc2c(c1)OCCn1cc(N3C(=O)OCC3C(F)F)nc1-2)C(N)=O", 89]
]}

Next molecule, please.
Recorded viability, T/C of CCN1CCN(Cc2ccc(Nc3ncc(F)c(-c4cc(F)c5nc(C)n(C(C)C)c5c4)n3)nc2)CC1 + COc1c(OCCCN2CCOCC2)ccc2c3n(c(=NC(=O)c4cnc(N)nc4)nc12)CCN3 , please. 47.6

###

System: 883617-216-R-J1-PDC tumor spheroids, viability
assayDetails: Anticancer human tumor 883617-216-R-J1-PDC cell line growth inhibition [PI3K];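 further: spheroids exposed to agents for 7 days before the viability read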
measurementContext: second compound 1 µM; first compound 0.1 µM; stronger effect = lower value; spheroids with HUVEC and MSC
testReadout: viability, T/C (%)
Report the value in % with no unit label.

Solved entries:
{"columns": ["compound", "viability, T/C, %"],
 "data": [
  ["CC1(C)CCC(CN2CCN(c3ccc(C(=O)NS(=O)(=O)c4ccc(NCC5CCOCC5)c([N+](=O)[O-])c4)c(Oc4cnc5[nH]ccc5c4)c3)CC2)=C(c2ccc(Cl)cc2)C1 + Cc1nc(NC(=O)N2CCCC2C(N)=O)sc1-c1ccnc(C(C)(C)C(F)(F)F)c1", 28.9],
  ["C#Cc1c(F)ccc2cc(O)cc(-c3ncc4c(N5CC6CCC(C5)N6)nc(OCC56CCCN5CC(F)C6)nc4c3F)c12 (stereo not drawn) + Cc1nc(NC(=O)N2CCCC2C(N)=O)sc1-c1ccnc(C(C)(C)C(F)(F)F)c1", 28.3]
]}

Next compound, please.
# query: viability, T/C | item CC(C)NCC(C(=O)N1CCN(c2ncnc3c2C(C)CC3O)CC1)c1ccc(Cl)cc1 (stereo not drawn) + CC(Nc1ccc2c(c1)OCCn1cc(N3C(=O)OCC3C(F)F)nc1-2)C(N)=O | system: 883617-216-R-J1-PDC tumor spheroids, viability 21.9

###

Tested on: 883617-216-R-J1-PDC tumor spheroids, viability
assayDetails: Anticancer human tumor 883617-216-R-J1-PDC cell line growth inhibition [PI3K];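 further: spheroids exposed to agents for 7 days before the viability read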
measurementContext: curve of first compound; second compound 0.0316 µM; spheroids with HUVEC and MSC
pIC50: −log10 of the molar value.
testReadout: pIC50

{"columns": ["compound", "pIC50"],
 "data": [
  ["C#Cc1c(F)ccc2cc(O)cc(-c3ncc4c(N5CC6CCC(C5)N6)nc(OCC56CCCN5CC(F)C6)nc4c3F)c12 (configuration not stated) + COc1c(OCCCN2CCOCC2)ccc2c3n(c(=NC(=O)c4cnc(N)nc4)nc12)CCN3", "> 7.50"],
  ["CC(=O)c1c(C)c2cnc(Nc3ccc(N4CCNCC4)cn3)nc2n(C2CCCC2)c1=O + CC(Nc1ncnc2nc[nH]c12)c1cc2cccc(Cl)c2c(=O)n1-c1ccccc1", 7.07],
  ["C[C@@H](NC(=O)c1ncnc(N)c1Cl)c1ncc(C(=O)Nc2cc(C(F)(F)F)c(Cl)cn2)s1 + CC(Nc1ccc2c(c1)OCCn1cc(N3C(=O)OCC3C(F)F)nc1-2)C(N)=O", 5.20]
]}

Recorded pIC50 of CNC(=O)c1ccc(N2C(=S)N(c3ccc(C#N)c(C(F)(F)F)c3)C(=O)C2(C)C)cc1F + CC(Nc1ncnc2nc[nH]c12)c1cc2cccc(Cl)c2c(=O)n1-c1ccccc1 , please. < 5.00

What do you have for Cn1ncc(Cl)c1-c1cc(C(=O)NC(CN)Cc2cccc(F)c2)sc1Cl (configuration not stated) + CC(Nc1ncnc2nc[nH]c12)c1cc2cccc(Cl)c2c(=O)n1-c1ccccc1 ? 6.29

What do you have for C[C@@H](NC(=O)c1ncnc(N)c1Cl)c1ncc(C(=O)Nc2cc(C(F)(F)F)c(Cl)cn2)s1 + COc1c(OCCCN2CCOCC2)ccc2c3n(c(=NC(=O)c4cnc(N)nc4)nc12)CCN3 ? > 7.50

What do you have for Cn1cnc2c(F)c(Nc3ccc(Br)cc3Cl)c(C(=O)NOCCO)cc21 + COc1c(OCCCN2CCOCC2)ccc2c3n(c(=NC(=O)c4cnc(N)nc4)nc12)CCN3 ? > 8.02

What do you have for C=CC(=O)N1CCN(c2nc(=O)n(-c3c(C)ccnc3C(C)C)c3nc(-c4c(O)cccc4F)c(F)cc23)C(C)C1 (configuration not stated) + COc1c(OCCCN2CCOCC2)ccc2c3n(c(=NC(=O)c4cnc(N)nc4)nc12)CCN3 ? > 7.50

What do you have for Cn1nccc1Nc1nccc(-c2ccn(C(CO)c3ccc(Cl)c(F)c3)c(=O)c2)n1 (configuration not stated) + COc1c(OCCCN2CCOCC2)ccc2c3n(c(=NC(=O)c4cnc(N)nc4)nc12)CCN3 ? > 7.50

What do you have for Cn1nccc1Nc1nccc(-c2ccn(C(CO)c3ccc(Cl)c(F)c3)c(=O)c2)n1 (configuration not stated) + Cc1nc(NC(=O)N2CCCC2C(N)=O)sc1-c1ccnc(C(C)(C)C(F)(F)F)c1 ? 5.04
